Recorded values, source patent US20070184519A1.

pIC50 values, listed per item
Biological target: HLA-DR molecule DRB1*0404 (human)
Assay: competition vs 125I probe, purified HLA
Give only the number. pIC50 is defined as minus log10 of concentration in molar units.

GLRSLTTLARALGAQ [EPO 101 analog GLRSLTTLARALGAQ] | 7.89

input: For GLRSLTTLSRALGAQ [EPO 101 analog GLRSLTTLSRALGAQ] , what is its reported pIC50?
output: 7.89

input: Can you check GLRSLTTLLDALGAQ [EPO 101 analog GLRSLTTLLDALGAQ] next?
output: 8.03

input: Input GLRSLTTLPRALGAQ [EPO 101 analog GLRSLTTLPRALGAQ]
output: 7.89

input: Do the same for GLRSLGTLLRALGAQ [EPO 101 analog GLRSLGTLLRALGAQ] please
output: 7.89
